From: the RNAGym collection of RNA variant scans (doi:10.7554/elife.80360)

Please provide measured self-cleavage for the entries that follow.
B1: HDV Ribozyme (parent)
chain: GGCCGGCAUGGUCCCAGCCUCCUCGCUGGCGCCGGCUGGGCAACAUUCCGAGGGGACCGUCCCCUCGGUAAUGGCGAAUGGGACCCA

Variants of: B1
Test: self-cleavage, relative activity (ratio to wild type); higher = more cleavage; co-transcriptional

Reference set, count: 5
Inquiry: Would you kindly share the measured self-cleavage for G80A C84G ?
Reply text: 0.161

Inquiry: Would you kindly share the measured self-cleavage for C3U C14U ?
Reply text: 0.758

Inquiry: Would you kindly share the measured self-cleavage for C63G C85A ?
Reply text: 0.95

Inquiry: Would you kindly share the measured self-cleavage for C19G G55C ?
Reply text: 0.0475

Inquiry: Would you kindly share the measured self-cleavage for C14G A42G ?
Reply text: 0

# map each variant to its self-cleavage
1. C32A C62U
2. A42U C57A

Reply text:
1. 0.341
2. 0.575
